Reported pKi against Muscarinic acetylcholine receptor M1 (Homo sapiens, UniProt P11229), gathered from multiple publications, appears below.
Target: Muscarinic acetylcholine receptor M1 (Homo sapiens, UniProt P11229)
Sequence (P11229 whole entry): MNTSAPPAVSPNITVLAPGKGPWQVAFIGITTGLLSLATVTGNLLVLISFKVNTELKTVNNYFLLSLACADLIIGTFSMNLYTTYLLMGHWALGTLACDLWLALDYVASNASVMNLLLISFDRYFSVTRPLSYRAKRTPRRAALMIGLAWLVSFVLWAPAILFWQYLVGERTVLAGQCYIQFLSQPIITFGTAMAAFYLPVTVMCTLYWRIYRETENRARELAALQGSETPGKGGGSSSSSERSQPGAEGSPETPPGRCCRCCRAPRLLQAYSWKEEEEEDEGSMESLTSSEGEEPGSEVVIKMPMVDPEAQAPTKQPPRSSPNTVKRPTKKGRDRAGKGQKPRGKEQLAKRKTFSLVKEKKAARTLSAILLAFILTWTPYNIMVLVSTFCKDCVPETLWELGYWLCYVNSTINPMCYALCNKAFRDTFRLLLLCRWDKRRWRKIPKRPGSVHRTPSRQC
In simple prose, pKi is minus the logarithm base ten of a concentration in moles per litre.

Item "N=C(N)NCCC[C@H](N)C(=O)NCCN1CCN(CCCCC2CCN(CC(=O)N3c4ccccc4NC(=O)c4ccccc43)CC2)CC1" has what recorded pKi?
8.87

Item CN1CCCC(OC(=O)N(CCc2ccc(F)cc2)c2ccccc2)C1 (stereo not drawn) has what recorded pKi?
6.92

Item "O=C(CNC(=O)[C@@H]1CCCN1C(=O)CC(c1ccccc1)(c1ccccc1)c1ccccc1)NC[C@H]1CCCN(CC2CCCCC2)C1" has what recorded pKi?
6.82

Item "CN1CCC=C(c2nsnc2OCCCCCCCCCCCCO)C1" has what recorded pKi?
7.30

Item CN(Cc1ccccc1)[C@H]1C2C3CC4C2C(=O)C2C4C3C21 (stereo partly drawn) has what recorded pKi?
5.23

Item "CCC(=O)NC1CN(CCCCC2CCN(CC(=O)N3c4ccccc4NC(=O)c4ccccc43)CC2)CCN(CCCCC2CCN(CC(=O)N3c4ccccc4NC(=O)c4ccccc43)CC2)C1.O=C(O)C(F)(F)F.O=C(O)C(F)(F)F.O=C(O)C(F)(F)F.O=C(O)C(F)(F)F" has what recorded pKi?
8.15

###

Reported Ki against Muscarinic acetylcholine receptor M1 (Homo sapiens), gathered from multiple publications, appears below.
Target: Muscarinic acetylcholine receptor M1 (Homo sapiens)
Sequence (P11229 whole entry): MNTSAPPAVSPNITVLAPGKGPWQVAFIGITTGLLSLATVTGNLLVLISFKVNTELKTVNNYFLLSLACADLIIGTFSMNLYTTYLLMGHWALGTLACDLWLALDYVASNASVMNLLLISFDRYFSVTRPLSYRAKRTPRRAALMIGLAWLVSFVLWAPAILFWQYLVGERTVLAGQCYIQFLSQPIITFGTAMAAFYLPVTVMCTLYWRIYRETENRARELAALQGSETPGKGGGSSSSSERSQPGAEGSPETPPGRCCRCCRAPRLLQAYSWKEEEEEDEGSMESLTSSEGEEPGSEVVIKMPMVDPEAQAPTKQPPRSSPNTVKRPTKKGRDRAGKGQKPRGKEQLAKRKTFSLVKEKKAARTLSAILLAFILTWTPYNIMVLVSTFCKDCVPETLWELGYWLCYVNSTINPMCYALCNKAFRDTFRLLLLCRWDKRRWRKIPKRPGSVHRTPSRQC
Give a bare numeral; the unit µM is implied.

Item "O=C(CCCCCNC(=O)CC(c1ccccc1)(c1ccccc1)c1ccccc1)NC[C@H]1CCCN(CC2CCCCC2)C1" has what recorded Ki?
0.11

Item CN1CCC[C@H]1[C@H]1C[S+]([O-])C(c2ccccc2)(c2ccccc2)O1 (stereo in doubt; (+)-4) has what recorded Ki?
0.11

Item "CCC(=O)NCCNC(=O)CCc1cn(CCCCC2CCN(CC(=O)N3c4ccccc4NC(=O)c4ccccc43)CC2)cn1" has what recorded Ki?
0.00794

Item "CCOCCOCCOCCOc1nsnc1C1=CCCN(C)C1" has what recorded Ki?
0.631

Item O=C(CCN1CCCc2ccccc21)N1CCCC(O)C1 (centres undefined) has what recorded Ki?
33.1

Item CN1CCC[C@@H]1[C@@H]1C[S+]([O-])[C@](c2ccccc2)(C2CCCCC2)O1 (stereo in doubt; (-)-6) has what recorded Ki?
0.0794

Item C[N+]1(C)CCC[C@H]1[C@H]1C[S+]([O-])[C@@](c2ccccc2)(C2CCCCC2)O1.[I-] (stereo in doubt; (+)-12) has what recorded Ki?
0.012

Item O=C(CCN1CCCc2ccccc21)N1CCCC(CO)C1 (centres undefined) has what recorded Ki?
1.45

Item "C=C(c1ccc(S(=O)(=O)c2ccc(OC)cc2)cc1)C1CCN(C2CCN(C(=O)OCc3ccccc3)CC2)CC1" has what recorded Ki?
0.0108

Item "C=C(c1ccc(S(=O)(=O)c2ccc(OC)cc2)cc1)C1CCN(C2CCN(C(=O)Cc3ccccc3)CC2)CC1" has what recorded Ki?
0.0957

Item COc1ccc([S+]([O-])c2ccc(C(N3CCN(C4CCCCC4)CC3)C(F)(F)F)cc2)cc1 (centres undefined) has what recorded Ki?
0.023

Item "COc1nsnc1OCCOCCOCCOc1nsnc1C1=CCCN(C)C1" has what recorded Ki?
0.316

Item COc1ccc2c(c1)CC(CCN(C)C)=C2C(C)c1ccccn1 (centres undefined) has what recorded Ki?
1.55

Item COc1ccc(S(=O)(=O)c2ccc(C(C#N)N3CCN(C4CCCCC4)CC3)cc2)cc1 (centres undefined) has what recorded Ki?
0.0718

Item "c1coc([C@H]2CCCN2)c1" has what recorded Ki?
46.8

Item Cc1ccc(S(=O)(=O)c2ccc(C(C)N3CCN(C4CCCCC4)CC3)cc2)cc1 (centres undefined) has what recorded Ki?
0.011

###

Reported pKi against Muscarinic acetylcholine receptor M1 (Homo sapiens), gathered from multiple publications, appears below.
Biological target: Muscarinic acetylcholine receptor M1 (Homo sapiens)
Sequence (P11229 whole entry): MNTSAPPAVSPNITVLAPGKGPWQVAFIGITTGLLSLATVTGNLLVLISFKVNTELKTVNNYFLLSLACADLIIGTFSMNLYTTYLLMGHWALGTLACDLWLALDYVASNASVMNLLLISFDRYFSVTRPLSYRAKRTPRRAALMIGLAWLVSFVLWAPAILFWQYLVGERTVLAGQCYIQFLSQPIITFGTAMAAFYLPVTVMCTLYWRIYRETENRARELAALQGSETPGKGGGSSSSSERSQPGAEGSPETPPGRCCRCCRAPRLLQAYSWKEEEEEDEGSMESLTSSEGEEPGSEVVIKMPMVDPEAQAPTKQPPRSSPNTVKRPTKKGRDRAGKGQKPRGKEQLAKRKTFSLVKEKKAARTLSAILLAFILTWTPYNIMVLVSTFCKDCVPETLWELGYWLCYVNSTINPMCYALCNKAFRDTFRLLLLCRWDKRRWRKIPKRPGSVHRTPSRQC
In simple prose, pKi is minus the logarithm base ten of a concentration in moles per litre.

Item "C[N+]1(CC#CCOc2cc(-c3ccccc3)on2)CCCC1.[I-]" has what recorded pKi?
5.47

Item "C=C(c1ccc(S(=O)(=O)c2ccc(OC)cc2)cc1)C1CCN(C2CCNCC2)CC1" has what recorded pKi?
8.04

Item "CN(C)CCNC(=O)C1=C(Cc2ccccn2)c2ccccc2C1" has what recorded pKi?
4.79

Item CCCCCCSc1cncc(OC2CN3CCC2C3)n1 (stereo not given) has what recorded pKi?
7.66

Item "NCCN1CCN(C(=O)CCCC2CCN(CC(=O)N3c4ccccc4NC(=O)c4ccccc43)CC2)CC1" has what recorded pKi?
6.14

Item CC1CCc2ccccc2N1CC(=O)N1CCCC1 (stereo not given) has what recorded pKi?
4.35

Item "CC(=O)N[C@@H](CCCCN)C(=O)N[C@@H](CCCNC(=N)N)C(=O)NCCCCC1CCN(CC(=O)N2c3ccccc3NC(=O)c3ccccc32)CC1" has what recorded pKi?
7.40

Item "CCN(CC)CCOCCOC(=O)C1(c2ccccc2)CCCCC1" has what recorded pKi?
6.87

Item CC1CCCC(C)N1C(=O)CCN1CCCc2ccccc21 (stereo not given) has what recorded pKi?
4.56

###

Target: Muscarinic acetylcholine receptor M1 (Homo sapiens, UniProt P11229)
Sequence (P11229 whole entry): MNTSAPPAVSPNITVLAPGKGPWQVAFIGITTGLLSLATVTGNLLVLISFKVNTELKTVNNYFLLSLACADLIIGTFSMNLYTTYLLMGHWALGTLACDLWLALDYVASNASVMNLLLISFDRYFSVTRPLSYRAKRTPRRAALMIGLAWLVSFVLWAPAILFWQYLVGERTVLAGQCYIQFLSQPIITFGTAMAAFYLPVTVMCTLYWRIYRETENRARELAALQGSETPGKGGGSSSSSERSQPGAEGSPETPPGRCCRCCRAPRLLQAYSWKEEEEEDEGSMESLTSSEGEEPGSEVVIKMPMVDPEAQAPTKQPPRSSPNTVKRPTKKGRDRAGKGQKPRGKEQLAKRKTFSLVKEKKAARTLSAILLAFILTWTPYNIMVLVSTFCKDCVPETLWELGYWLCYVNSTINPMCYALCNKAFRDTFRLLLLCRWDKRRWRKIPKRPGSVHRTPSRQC
Reported pKi against Muscarinic acetylcholine receptor M1 (Homo sapiens, UniProt P11229), gathered from multiple publications, appears below.
In simple prose, pKi is minus the logarithm base ten of a concentration in moles per litre.

Item "O=C(NCCC1CCNCC1)[C@H]1CCCN1C(=O)[C@@H]1C[C@@H](O)CN1C(=O)CC(c1ccc(F)cc1)(c1ccc(F)cc1)c1ccc(F)cc1" has what recorded pKi?
6.52

Item "O=C(CCN1CCCc2ccccc21)NC1CCCC1" has what recorded pKi?
6.61

Item CN1CCC[C@@H]1[C@@H]1C[S+]([O-])C(c2ccccc2)(c2ccccc2)O1 (stereo in doubt; (-)-4) has what recorded pKi?
7.13

Item CN1CCN(CC(=O)N2c3ccccc3C(=O)Nc3cccnc32)[C@@H]2CCCC[C@H]21 (relative stereo) has what recorded pKi?
5.64
